All figures here come from PubChem BioAssay AID1813.

Catalogue of inhibition readings, one per entry.
ASSAY METHOD TEXT: 5' untranslated region of α-synuclein, MLPCN primary screen (AID 1813);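 further: H4 neuroglioblastoma cells stably carrying SNCA 5'UTR luciferase fusion; 0% = DMSO wells and 100% = positive control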
ASSAY CONDITIONS: alpha-synuclein 5'UTR reporter, inhibitor activity; active compounds read high; tested at 7.5 µM
Among all 300,000 compounds or so, about 2,500 (0.83%) were called active. For the sample, actives were picked, then their nearest neighbours and some compounds at random.
REPORTED METRIC: inhibition (%)

{"COMPOUND": "CCCCn1c(CCCNC(=O)CC)nc2ccccc21", "REPORTED METRIC": "inhibition", "READOUT NUMBER": -5.46}
{"COMPOUND": "CN1CN(C)c2ccc([N+](=O)[O-])c3cccc1c23", "REPORTED METRIC": "inhibition", "READOUT NUMBER": 35.2}
{"COMPOUND": "O=C(NCc1ccccc1)c1onc(CSc2nc3ccccc3[nH]2)c1C(=O)NCc1ccccc1", "REPORTED METRIC": "inhibition", "READOUT NUMBER": 21.2}
{"COMPOUND": "Cc1nn(C)c(C)c1CN(C(=O)CCc1nnc(Cc2c[nH]c3ccccc23)o1)C(C)C", "REPORTED METRIC": "inhibition", "READOUT NUMBER": 13.9}
{"COMPOUND": "Cc1cc(C(=O)Cn2cnc3cc([N+](=O)[O-])ccc3c2=O)c(C)n1CC1CCCO1 (centres undefined)", "REPORTED METRIC": "inhibition", "READOUT NUMBER": -21.1}
{"COMPOUND": "CCC(=O)Nc1nc2ccccc2n1Cc1ccccc1C", "REPORTED METRIC": "inhibition", "READOUT NUMBER": 65.5}
{"COMPOUND": "COc1ccc(/C=C/C(=O)Nc2cccnc2)cc1OC", "REPORTED METRIC": "inhibition", "READOUT NUMBER": -72.4}
{"COMPOUND": "O=C(COC(=O)c1ccc(NS(=O)(=O)c2cccs2)cc1O)Nc1ccc(F)cc1", "REPORTED METRIC": "inhibition", "READOUT NUMBER": 7.94}
{"COMPOUND": "CN1C(=O)/C(=C/c2ccc(C(=O)NC3CCCC3)cc2)Oc2ccccc21", "REPORTED METRIC": "inhibition", "READOUT NUMBER": -48}
{"COMPOUND": "Brc1ccc2c(c1)[C@H]1OCC[C@H]1[C@@H](c1cccs1)N2", "REPORTED METRIC": "inhibition", "READOUT NUMBER": 72.2}
{"COMPOUND": "O=C(N[C@@H](Cc1ccccc1)C(=O)OCc1ccccc1)c1nc[nH]c1C(=O)NC1CCNCC1", "REPORTED METRIC": "inhibition", "READOUT NUMBER": -8.61}
{"COMPOUND": "Fc1ccc(-n2c(Cc3ccccc3)nnc2SCc2nc(-c3ccc(Cl)cc3)no2)cc1", "REPORTED METRIC": "inhibition", "READOUT NUMBER": -3.62}
{"COMPOUND": "Cc1ccc2[nH]c(=O)c(CN(C)S(=O)(=O)c3cccc4nonc34)cc2c1", "REPORTED METRIC": "inhibition", "READOUT NUMBER": -5.89}
{"COMPOUND": "COc1cccc(/C=N/NC(=O)c2[nH]nc3c2CCc2ccccc2-3)c1O", "REPORTED METRIC": "inhibition", "READOUT NUMBER": 76.4}
{"COMPOUND": "CCc1noc(C)c1C(=O)N1CCCC(N2CCN(c3ccc(F)cc3)CC2)C1 (centres undefined)", "REPORTED METRIC": "inhibition", "READOUT NUMBER": 14.8}
{"COMPOUND": "CSCc1nnc(NC(=O)c2ccc(S(=O)(=O)N3CCCCC3C)cc2)o1 (centres undefined)", "REPORTED METRIC": "inhibition", "READOUT NUMBER": 14.5}
{"COMPOUND": "O=C(NCCN1CCOCC1)c1ccc(/C=C2\\Sc3ccccc3N(Cc3ccc(F)cc3)C2=O)cc1", "REPORTED METRIC": "inhibition", "READOUT NUMBER": 14}
{"COMPOUND": "CC1CCCN(S(=O)(=O)c2ccc(C(=O)Nc3nnc(-c4ccncc4)o3)cc2)C1 (centres undefined)", "REPORTED METRIC": "inhibition", "READOUT NUMBER": -13.6}
{"COMPOUND": "CC(=O)Nc1ccc(N2C(=O)C3C4CC(=O)C(c5ccccc54)C3C2=O)cc1 (centres undefined)", "REPORTED METRIC": "inhibition", "READOUT NUMBER": 17.3}
